All values here come from patent US6727278B1.

Tested on: human DMS
Experiment: In vivo assay: amyloid formation induced by intracerebral injection of human DMS with the compound, Congo Red histology
Parameters: species or system Male Wistar rats
Conditions: 10^−5 − 10^−6M; percentage of lesion area; ** = significant decrease from untreated controls
Some compounds, each annotated with its measured Mean Lesion Area Composed of CBADs.
Give the figure only, with no unit attached.

compound	subject of test	Mean Lesion Area Composed of CBADs
Cc1noc(NS(=O)(=O)c2ccc(N)cc2)c1C [Gantrisin, Sulfisoxazole]	human DMS	8.4

# next compound below
[ask] Please look up its Mean Lesion Area Composed of CBADs: OCCN(CCO)c1nc(N2CCCCC2)c2nc(N(CCO)CCO)nc(N3CCCCC3)c2n1 [Persantine]
[reply] 14.6
